system: NCI-H522 lung; test: NCI-60 one-dose screen, 48 h (100 = growth as untreated, 0 = no growth, -100 = all killed); conditions: 10 µM unless noted
About 83,000 compounds went through this panel and 20% of them were active in at least one assay; those are over-represented in the sample as a whole. Activity calls are given as the source filed them. The calls were made as follows: active = growth percent below 10; inactive = the rest.
Could you please report measured growth for the items listed next?

What measured growth is associated with Cc1ccc2nc3c(cc2c1)CSc1nnc(-c2ccc[nH]c2=S)n1N3 on NCI-H522 lung?
83.7% (inactive)

What measured growth is associated with Cc1ccccc1CNc1ccc(N2CCOCC2)cc1 on NCI-H522 lung?
101% (inactive)

What measured growth is associated with CN1C2CCC1CN(c1cnc(C(=O)Nc3cc(F)cc4cccnc34)cn1)C2 on NCI-H522 lung?
24.4% (inactive)

What measured growth is associated with C=CCn1c(SCC(=O)Nc2ccc(C(=O)/C=C/c3cc(OC)c(OC)c(OC)c3)cc2)nnc1-c1cc(OC)c(OC)c(OC)c1 on NCI-H522 lung?
47% (inactive)

What measured growth is associated with CCN(CC)S(=O)(=O)c1cccc([N+](=O)[O-])c1 on NCI-H522 lung?
72.3% (inactive)

What measured growth is associated with COc1ccc(C2CC(n3nnnc3-c3ccccc3)=NN2)cc1 (stereo unspecified) on NCI-H522 lung?
47.1% (inactive)

What measured growth is associated with COc1ccccc1OCC(=O)N1CCCCCC1 on NCI-H522 lung?
96% (inactive)

What measured growth is associated with COC(=O)CCCCCCCCC1(C)C=CC(C(C)O)=CC1 (stereo unspecified) on NCI-H522 lung?
89% (inactive)

What measured growth is associated with COc1ccc(C(=O)c2cc3c(N)c(C(=O)Nc4ccc(Cl)cc4)sc3nc2C)cc1 on NCI-H522 lung?
43.8% (inactive)

What measured growth is associated with CCOC(=O)c1c(O)cc(-c2ccccc2)cc1-c1sc(N(C)Cc2ccccc2)nc1Cl on NCI-H522 lung?
86.4% (inactive)

What measured growth is associated with CN1CCN(c2ccc(NC3=C(Cl)C(=O)c4ncccc4C3=O)cc2C#N)CC1 on NCI-H522 lung?
-56.9% (active)
